Test system: AGA1 T cell receptor
Protocol Notes: Selection of yeast-displayed HLA-B5703 peptide library with AGA1 TCR, deep sequencing read counts
Assay type: binding
Condition: after round 1 of selection with AGA1 TCR
Reported number of times the peptide was represented, Rd1 values are given for each entry in this list.
Property Name: number of times the peptide was represented, Rd1

{"Input Sequence": "YSFKPELKEIF [HLA-B5703 library peptide selected with AGA1 TCR]", "Recorded Number": 5}
{"Input Sequence": "GTIRPEIREMW [HLA-B5703 library peptide selected with AGA1 TCR]", "Recorded Number": 37}
{"Input Sequence": "KSFVPELKPAF [HLA-B5703 library peptide selected with AGA1 TCR]", "Recorded Number": 36}
{"Input Sequence": "SALRPEIRLLW [HLA-B5703 library peptide selected with AGA1 TCR]", "Recorded Number": 50}
{"Input Sequence": "SSFSPELRMRW [HLA-B5703 library peptide selected with AGA1 TCR]", "Recorded Number": 10}
{"Input Sequence": "SSGVPEVRMMF [HLA-B5703 library peptide selected with AGA1 TCR]", "Recorded Number": 38}
{"Input Sequence": "NSLKPEIPDYF [HLA-B5703 library peptide selected with AGA1 TCR]", "Recorded Number": 47}
{"Input Sequence": "KSCTPEVREYF [HLA-B5703 library peptide selected with AGA1 TCR]", "Recorded Number": 17}
{"Input Sequence": "KSLTPEVRGYW [HLA-B5703 library peptide selected with AGA1 TCR]", "Recorded Number": 15}
{"Input Sequence": "ASFSPELRMAW [HLA-B5703 library peptide selected with AGA1 TCR]", "Recorded Number": 10}
{"Input Sequence": "NSVKPEIRPVW [HLA-B5703 library peptide selected with AGA1 TCR]", "Recorded Number": 10}
{"Input Sequence": "LSLRPEIPLFF [HLA-B5703 library peptide selected with AGA1 TCR]", "Recorded Number": 74}
{"Input Sequence": "RSFVPEIGMGF [HLA-B5703 library peptide selected with AGA1 TCR]", "Recorded Number": 18}
